Where do these numbers come from? They come from patent US20140294898A1.

# testedTarget: T1, human PD-L1 (human, UniProt Q9NZQ7 19-239, limits assumed)
# T1 construct: also called Hu PD-L1; hPD-L1
# T1 sequence (Q9NZQ7 19-239 limits assumed): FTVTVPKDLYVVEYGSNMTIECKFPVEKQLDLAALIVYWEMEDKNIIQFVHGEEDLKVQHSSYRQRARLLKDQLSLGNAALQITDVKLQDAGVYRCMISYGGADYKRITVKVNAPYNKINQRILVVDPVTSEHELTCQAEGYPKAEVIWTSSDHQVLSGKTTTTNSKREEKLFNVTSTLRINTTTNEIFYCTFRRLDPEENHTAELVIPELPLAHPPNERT
# testSummary: cell binding assay, inhibition of Hu PD-L1/PD-1 binding
Positions of bridges follow the written chain, without caps; N, C: chain ends. Non-standard residues stand in square brackets, D forms with d. NMeNle = CCCC[C@H](NC)C(=O)O; NMeA = CN[C@@H](C)C(=O)O; Sar = CNCC(=O)O
observable: IC50 (nM)

binder	observable	unitAbbrev	reportedResult
{CH2CO}-F[NMeA]NPHL[Sar]WSM[NMeNle][NMeNle]RCG-NH2 (thioether N-14; SMILES CCCC[C@H]1C(=O)N(C)[C@@H](CCCC)C(=O)N[C@@H](CCCNC(=N)N)C(=O)N[C@H](C(=O)NCC(N)=O)CSCC(=O)N[C@@H](Cc2ccccc2)C(=O)N(C)[C@@H](C)C(=O)N[C@@H](CC(N)=O)C(=O)N2CCC[C@H]2C(=O)N[C@@H](Cc2c[nH]cn2)C(=O)N[C@@H](CC(C)C)C(=O)N(C)CC(=O)N[C@@H](Cc2c[nH]c3ccccc23)C(=O)N[C@@H](CO)C(=O)N[C@@H](CCSC)C(=O)N1C, macrocyclic peptide, Formula I series; also called Compound 61) [Compound No. 61]	IC50	nM	195
{CH2CO}-F[NMeA]NPHLRWSW[NMeNle][NMeNle]RCG-NH2 (thioether N-14; SMILES CCCC[C@H]1C(=O)N(C)[C@@H](CCCC)C(=O)N[C@@H](CCCNC(=N)N)C(=O)N[C@H](C(=O)NCC(N)=O)CSCC(=O)N[C@@H](Cc2ccccc2)C(=O)N(C)[C@@H](C)C(=O)N[C@@H](CC(N)=O)C(=O)N2CCC[C@H]2C(=O)N[C@@H](Cc2c[nH]cn2)C(=O)N[C@@H](CC(C)C)C(=O)N[C@@H](CCCNC(=N)N)C(=O)N[C@@H](Cc2c[nH]c3ccccc23)C(=O)N[C@@H](CO)C(=O)N[C@@H](Cc2c[nH]c3ccccc23)C(=O)N1C, macrocyclic peptide, Formula I series; also called Compound 54) [Compound No. 54]	IC50	nM	68
